Test: In vitro microsomal metabolic stability, human liver microsomes
Type: in vitro ADME
Details: Human liver microsomes, without NADPH regenerating system, 60 min
Measured Remaining (T = NCF60 min) accompanies every entry in the list below.
# output: bare number, implied unit %

Compound	Unit Of Measure	Remaining (T = NCF60 min)
CO[C@@H]1C[C@H](C[C@@H](C)[C@@H]2CC[C@H](C)/C=C(\C)[C@@H](O)[C@@H](OC)C(=O)[C@H](C)C[C@H](C)/C=C/C=C/C=C(\C)C(Nc3cccc(C)c3)C[C@@H]3CC[C@@H](C)[C@@](O)(O3)C(=O)C(=O)N3CCCCC3C(=O)O2)CC[C@H]1O (stereo partly shown)	%	99
COc1cccc(NC2C[C@@H]3CC[C@@H](C)[C@@](O)(O3)C(=O)C(=O)N3CCCCC3C(=O)O[C@H]([C@H](C)C[C@@H]3CC[C@@H](O)[C@H](OC)C3)CC[C@H](C)/C=C(\C)[C@@H](O)[C@@H](OC)C(=O)[C@H](C)C[C@H](C)/C=C/C=C/C=C/2C)c1 (stereo partly shown)	%	99
CO[C@@H]1C[C@H](C[C@@H](C)[C@@H]2CC[C@H](C)/C=C(\C)[C@@H](O)[C@@H](OC)C(=O)[C@H](C)C[C@H](C)/C=C/C=C/C=C(\C)C(Nc3cccc(OC(F)(F)F)c3)C[C@@H]3CC[C@@H](C)[C@@](O)(O3)C(=O)C(=O)N3CCCCC3C(=O)O2)CC[C@H]1O (stereo partly shown)	%	93

**Q:** Field request: Remaining (T = NCF60 min) | item: CO[C@@H]1CC(C[C@@H](C)[C@@H]2CC[C@H](C)/C=C(\C)[C@@H](O)[C@@H](OC)C(=O)[C@H](C)C[C@H](C)/C=C/C=C/C=C(\C)C(Nc3cncc(C)n3)CC3CC[C@@H](C)[C@@](O)(O3)C(=O)C(=O)N3CCCC[C@H]3C(=O)O2)CC[C@H]1O (stereo partly shown)
**A:** 84.00

**Q:** Entry under review: CO[C@H]1C[C@@H]2CC[C@@H](C)[C@@](O)(O2)C(=O)C(=O)N2CCCC[C@H]2C(=O)O[C@H]([C@H](C)C[C@@H]2CC[C@@H](O)[C@H](OC)C2)CC[C@H](C)/C=C(\C)[C@@H](O)[C@@H](OC)C(=O)[C@H](C)C[C@H](C)/C=C/C=C/C=C/1C [32-Deoxo Rapamycin, 32-deoxorapamycin, reference compound] . Reported Remaining (T = NCF60 min)?
**A:** 96

**Q:** Fill in the blank: the reported Remaining (T = NCF60 min) of CO[C@@H]1C[C@H](C[C@@H](C)[C@@H]2CC[C@H](C)/C=C(\C)[C@@H](O)[C@@H](OC)C(=O)[C@H](C)C[C@H](C)/C=C/C=C/C=C(\C)C(Nc3ccc(C)cc3)C[C@@H]3CC[C@@H](C)[C@@](O)(O3)C(=O)C(=O)N3CCCCC3C(=O)O2)CC[C@H]1O (stereo partly shown) is ____.
**A:** 102

**Q:** GET /values?readout=Remaining (T = NCF60 min)&item= CO[C@@H]1C[C@H](C[C@@H](C)[C@@H]2CC[C@H](C)/C=C(\C)[C@@H](O)[C@@H](OC)C(=O)[C@H](C)C[C@H](C)/C=C/C=C/C=C(\C)C(Nc3ccc(Cl)cc3)C[C@@H]3CC[C@@H](C)[C@@](O)(O3)C(=O)C(=O)N3CCCCC3C(=O)O2)CC[C@H]1O (stereo partly shown)
**A:** 107
